Origin of measurements: PubChem BioAssay

Experiment: HCT116 colon cancer cell growth inhibition, primary screen, CellTiter-Glo luminescence, NPC library (AID 1117342)
Details: at 20 µM (top of the series)
Active and inactive are the calls of the source.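 The calls were made as follows: active = compounds that lower survival of HCT116 colon cancer cells in the luminescence readout, no numeric limit stated; inactive = the rest.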
The categories you may choose from are YES (active), NO (inactive)

Examples from the recorded data:
{"compound": "C[C@]12CC[C@@H]3c4ccc(O)cc4CC[C@H]3[C@@H]1CCC2=O", "qualitative_label": "NO"}
{"compound": "OCc1ccccc1O", "qualitative_label": "NO"}
{"compound": "Clc1ccccc1C(c1ccccc1)(c1ccccc1)n1ccnc1", "qualitative_label": "YES"}

Outcome logged for `CCOc1cc(CC(=O)N[C@@H](CC(C)C)c2ccccc2N2CCCCC2)ccc1C(=O)O` in this assay: NO

Outcome logged for `Oc1cc(O)c2c(c1)O[C@H](c1ccc(O)c(O)c1)[C@H](O)C2` in this assay: NO

Outcome logged for `O=c1c(-c2ccccc2)c1-c1ccccc1` in this assay: YES

Outcome logged for `CN(C)[C@@H]1C(=O)C(C(N)=O)=C(O)[C@@]2(O)C(=O)C3=C(O)c4c(O)ccc(Cl)c4[C@@H](O)[C@H]3C[C@@H]12` in this assay: YES

Outcome logged for `Nc1nccs1` in this assay: NO

Outcome logged for `CO[C@@H]1[C@@H](OC(N)=O)[C@@H](O)[C@H](Oc2ccc3c(O)c(NC(=O)c4ccc(O)c(CC=C(C)C)c4)c(=O)oc3c2C)OC1(C)C` in this assay: NO

Outcome logged for CCN1CC(CCN2CCOCC2)C(c2ccccc2)(c2ccccc2)C1=O (stereo not given) in this assay: NO

---

Test: compounds altering viability of human ES cells (AID 493140);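 also: cells exposed to compounds for four days before counting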
Conditions: human embryonic stem cell survival screen; stronger effect = higher value
observation_type: survival
Numbers only.

{"compound": "CCn1cc(C(=O)O)c(=O)c2cc(F)c(N3CCNC(C)C3)c(F)c21 (configuration not stated)", "survival": 17.1}
{"compound": "CC(N)CCCC(C)(C)O (configuration not stated)", "survival": 21.5}
{"compound": "C=CCSCC1Nc2cc(Cl)c(S(N)(=O)=O)cc2S(=O)(=O)N1 (configuration not stated)", "survival": 6.42}
{"compound": "COc1cc2nc(N3CCN(C(=O)C4COc5ccccc5O4)CC3)nc(N)c2cc1OC (configuration not stated)", "survival": 4.33}
{"compound": "CC1=CC(=O)c2ccccc2C1=O", "survival": 2.42}
{"compound": "Cc1c(NC(C)C)c(=O)n(-c2ccccc2)n1C", "survival": 7.42}

For the 6 compounds below, give their survival values.
1. COc1ccc(CC2c3cc(OC)c(OC)cc3CC[N+]2(C)CCC(=O)OCCCCCOC(=O)CC[N+]2(C)CCc3cc(OC)c(OC)cc3C2Cc2ccc(OC)c(OC)c2)cc1OC (configuration not stated)
2. CC1=C(C(=O)O)N2C(=O)[C@@H](NC(=O)[C@H](N)c3ccc(O)cc3)[C@H]2SC1
3. NC(N)=N/N=C/c1c(Cl)cccc1Cl
4. O=C(OCC(O)CO)c1ccccc1Nc1ccnc2cc(Cl)ccc12 (configuration not stated)
5. O=C(CCCCC(=O)Nc1c(I)cc(I)c(C(=O)O)c1I)Nc1c(I)cc(I)c(C(=O)O)c1I
6. CCC(Cc1c(I)cc(I)c(N)c1I)C(=O)O (configuration not stated)

1. 12.4
2. 5
3. 17.8
4. 17.9
5. 5.33
6. 8.83

For the 2 compounds below, give their survival values.
1. O=C(O)c1ccccc1Nc1cccc(C(F)(F)F)c1
2. O=C(Nc1ccc([N+](=O)[O-])cc1Cl)c1cc(Cl)ccc1O

[25.2, 1.67]

For the 5 compounds below, give their survival values.
1. CC(=O)OCC(=O)[C@@]1(O)[C@H](C)C[C@H]2[C@@H]3CCC4=CC(=O)C=C[C@]4(C)[C@@]3(F)[C@@H](O)C[C@@]21C
2. CNC1(C)C2CCC(C2)C1(C)C (configuration not stated)
3. CCCc1c(OCCCCc2nn[nH]n2)ccc(C(C)=O)c1O
4. NCCCC[C@H](N[C@@H](CCc1ccccc1)C(=O)O)C(=O)N1CCC[C@H]1C(=O)O
5. Nc1ccc(S(=O)(=O)NC(=O)c2ccccc2)cc1

[16.5, 42, 110, 16.8, 3]

For the 2 compounds below, give their survival values.
1. Clc1ccccc1C(c1ccccc1)(c1ccccc1)n1ccnc1
2. CCN(CC)CCNC(=O)COc1ccc(OC)cc1

1: 29.8; 2: 49.8

Requested read-out: survival. Entry: `CN1CCC(=C2c3ccccc3Sc3ccccc32)CC1` 12.3

---

Give measured inclusion score for each item. Keep answers brief.
Experiment: GFP-Q80 aggregate reduction, neuronal-like cells, cell-based, NGF-treated PC12, GFPQ80 (AID 1614);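 also: lower means fewer inclusions and 0 means no inclusions at all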
Conditions: PC12 NGF-treated GFP-polyQ80 inclusion reduction
Numbers only.

Some entries whose results are on file:
{"compound": "COc1ccc(CN(CCN(C)C)c2ncccn2)cc1", "inclusion score": 2}
{"compound": "CCn1cc(C(=O)O)c(=O)c2cc3c(cc21)OCO3", "inclusion score": 2}
{"compound": "CC(=O)Nc1ccc(OCC(O)CNC(C)C)cc1 (stereo not drawn)", "inclusion score": 2}
{"compound": "CC(C)NCC(O)c1ccc2ccccc2c1 (stereo not drawn)", "inclusion score": 2}

For the 3 compounds below, give their inclusion score values.
1. CC(C)(Oc1ccc(Cl)cc1)C(=O)O
2. Nc1c2c(nc3ccccc13)CCCC2O (stereo not drawn)
3. CCCN(CCC)C(=O)C(CCC(=O)O)NC(=O)c1ccccc1 (stereo not drawn)

[2, 2, 1]

For the 5 compounds below, give their inclusion score values.
1. Cc1ccnc(NS(=O)(=O)c2ccc(N)cc2)n1
2. NC(=O)c1ncn([C@@H]2O[C@H](CO)[C@@H](O)[C@H]2O)n1
3. OCC(O)CN1CCN(c2ccccc2)CC1 (stereo not drawn)
4. N=C(N)N
5. Cc1c(NC(C)C)c(=O)n(-c2ccccc2)n1C

[2, 1.5, 2, 2, 2]

Requested read-out: inclusion score. Entry: `CC(=O)Nc1ccc(S(=O)(=O)Nc2ccc([N+](=O)[O-])cc2)cc1` 2

---

Tested on: R275C/beta2Delta
Test: BK channel mutant inhibitors and activators – cell-based, U2OS BacMam, thallium flux, beta subunits, selectivity assay, profiling panel (AID 1259406);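 also: initial slope of Thallos dye fluorescence rise after thallium is added; log ratio against the mean of 0.3% DMSO vehicle wells on the same plate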
Details: U2OS BacMam BK variants, at 30 µM
The source made the active and inactive calls.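 The calls were made as follows: active = thallium flux through the channel raised or lowered by more than 3 SD from vehicle-only wells, actives on both sides; inactive = the rest.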
The categories you may choose from are yes (1) for active, no (0) for inactive

{"smiles_record": "COc1ccc(C(=O)NCc2ccc(OCCN(C)C)cc2)cc1OC", "target_or_system": "R275C/beta2Delta", "qualitative_label": "no (0)"}

Outcome logged for `C[C@@H]1C[C@H]2[C@@H]3C[C@H](F)C4=CC(=O)C(Cl)=C[C@]4(C)[C@@]3(F)[C@@H](O)C[C@]2(C)[C@@]1(O)C(=O)CO` in this assay: no (0)

Outcome logged for `CN(C/C=C/C#CC(C)(C)C)Cc1cccc2ccccc12` in this assay: yes (1)

Outcome logged for `O=C(NCCN1CCOCC1)c1ccc(Cl)cc1` in this assay: no (0)

Outcome logged for `Cc1[nH]cnc1CN1CCc2c(c3ccccc3n2C)C1=O` in this assay: no (0)

Outcome logged for `CCC(=O)O[C@]1(C(=O)SCF)[C@H](C)C[C@H]2[C@@H]3C[C@H](F)C4=CC(=O)C=C[C@]4(C)[C@@]3(F)[C@@H](O)C[C@@]21C` in this assay: no (0)

Outcome logged for `CC(C)(C#N)c1cc(Cn2cncn2)cc(C(C)(C)C#N)c1` in this assay: no (0)

Outcome logged for `N#Cc1ccc(C(c2ccc(C#N)cc2)n2cncn2)cc1` in this assay: no (0)

Outcome logged for `CC1(C)S[C@@H]2[C@H](N=CN3CCCCCC3)C(=O)N2[C@H]1C(=O)O` in this assay: yes (1)

Outcome logged for `CNNCc1ccc(C(=O)NC(C)C)cc1` in this assay: no (0)

---

Test: viability loss in pontine glioma line – cell-based, SU-DIPG-XVII, MIPE5.0, CellTiter-Glo, qHTS, dose response (AID 1347060);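 as to AC50: cells exposed to compound for 48 hours before viability readout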
Settings: CellTiter-Glo ATP luminescence
Results filed as inconclusive are left out. Activity calls are given as the source filed them. No cut-off is given here; in the data, nearly all actives have AC50 up to about 26 µM.
The categories you may choose from are active, inactive

Examples from the recorded data:
{"molecule": "COc1ccc2nc(S(=O)Cc3ncc(C)c(OC)c3C)[nH]c2c1 (configuration not stated)", "qualitative_label": "inactive"}
{"molecule": "NC(=O)c1ncn([C@@H]2O[C@H](CO)[C@@H](O)[C@H]2O)n1", "qualitative_label": "inactive"}
{"molecule": "CN(CCOc1ccc(NS(C)(=O)=O)cc1)CCc1ccc(NS(C)(=O)=O)cc1", "qualitative_label": "inactive"}
{"molecule": "CS(=O)(=O)Nc1ccc([N+](=O)[O-])cc1Oc1ccccc1", "qualitative_label": "inactive"}
{"molecule": "NC(=O)c1ncn([C@@H]2O[C@H](CO)[C@@H](O)[C@H]2O)c1O", "qualitative_label": "inactive"}
{"molecule": "CC(C)(C)NC(=O)[C@H]1CC[C@H]2[C@@H]3CC[C@H]4NC(=O)C=C[C@]4(C)[C@H]3CC[C@]12C", "qualitative_label": "inactive"}
{"molecule": "CCCN(CCC)C(=O)C(CCC(=O)O)NC(=O)c1ccccc1 (configuration not stated)", "qualitative_label": "active"}
{"molecule": "S=P(N1CC1)(N1CC1)N1CC1", "qualitative_label": "active"}
{"molecule": "CCCOc1ccc(C(=O)OCCN(CC)CC)cc1N", "qualitative_label": "inactive"}
{"molecule": "CN1CCC(=C2c3ccccc3C=Cc3ccccc32)CC1", "qualitative_label": "inactive"}

Outcome logged for `Cc1ccc(C(=O)Nc2ccc(S(=O)(=O)O)c3cc(S(=O)(=O)O)cc(S(=O)(=O)O)c23)cc1NC(=O)c1cccc(NC(=O)Nc2cccc(C(=O)Nc3cc(C(=O)Nc4ccc(S(=O)(=O)O)c5cc(S(=O)(=O)O)cc(S(=O)(=O)O)c45)ccc3C)c2)c1` in this assay: active

Outcome logged for `CC(=O)O[C@]1(C(C)=O)CC[C@H]2[C@@H]3C=C(Cl)C4=CC(=O)[C@@H]5C[C@@H]5[C@]4(C)[C@H]3CC[C@@]21C` in this assay: active

Outcome logged for COc1ccccc1OCC(O)CN1CCN(CC(=O)Nc2c(C)cccc2C)CC1 (configuration not stated) in this assay: inactive

Outcome logged for `CN1CCC(=C2c3ccccc3CC(=O)c3sccc32)CC1` in this assay: inactive
